meta.source: patent US11787785B2

Measured On: WIZ protein (HiBit-WIZ fusion protein) (Homo sapiens, UniProt O95785+Q96SW2)
Construct: expressed in transfected cells
Sequence (O95785 whole entry, the tested form may be a part): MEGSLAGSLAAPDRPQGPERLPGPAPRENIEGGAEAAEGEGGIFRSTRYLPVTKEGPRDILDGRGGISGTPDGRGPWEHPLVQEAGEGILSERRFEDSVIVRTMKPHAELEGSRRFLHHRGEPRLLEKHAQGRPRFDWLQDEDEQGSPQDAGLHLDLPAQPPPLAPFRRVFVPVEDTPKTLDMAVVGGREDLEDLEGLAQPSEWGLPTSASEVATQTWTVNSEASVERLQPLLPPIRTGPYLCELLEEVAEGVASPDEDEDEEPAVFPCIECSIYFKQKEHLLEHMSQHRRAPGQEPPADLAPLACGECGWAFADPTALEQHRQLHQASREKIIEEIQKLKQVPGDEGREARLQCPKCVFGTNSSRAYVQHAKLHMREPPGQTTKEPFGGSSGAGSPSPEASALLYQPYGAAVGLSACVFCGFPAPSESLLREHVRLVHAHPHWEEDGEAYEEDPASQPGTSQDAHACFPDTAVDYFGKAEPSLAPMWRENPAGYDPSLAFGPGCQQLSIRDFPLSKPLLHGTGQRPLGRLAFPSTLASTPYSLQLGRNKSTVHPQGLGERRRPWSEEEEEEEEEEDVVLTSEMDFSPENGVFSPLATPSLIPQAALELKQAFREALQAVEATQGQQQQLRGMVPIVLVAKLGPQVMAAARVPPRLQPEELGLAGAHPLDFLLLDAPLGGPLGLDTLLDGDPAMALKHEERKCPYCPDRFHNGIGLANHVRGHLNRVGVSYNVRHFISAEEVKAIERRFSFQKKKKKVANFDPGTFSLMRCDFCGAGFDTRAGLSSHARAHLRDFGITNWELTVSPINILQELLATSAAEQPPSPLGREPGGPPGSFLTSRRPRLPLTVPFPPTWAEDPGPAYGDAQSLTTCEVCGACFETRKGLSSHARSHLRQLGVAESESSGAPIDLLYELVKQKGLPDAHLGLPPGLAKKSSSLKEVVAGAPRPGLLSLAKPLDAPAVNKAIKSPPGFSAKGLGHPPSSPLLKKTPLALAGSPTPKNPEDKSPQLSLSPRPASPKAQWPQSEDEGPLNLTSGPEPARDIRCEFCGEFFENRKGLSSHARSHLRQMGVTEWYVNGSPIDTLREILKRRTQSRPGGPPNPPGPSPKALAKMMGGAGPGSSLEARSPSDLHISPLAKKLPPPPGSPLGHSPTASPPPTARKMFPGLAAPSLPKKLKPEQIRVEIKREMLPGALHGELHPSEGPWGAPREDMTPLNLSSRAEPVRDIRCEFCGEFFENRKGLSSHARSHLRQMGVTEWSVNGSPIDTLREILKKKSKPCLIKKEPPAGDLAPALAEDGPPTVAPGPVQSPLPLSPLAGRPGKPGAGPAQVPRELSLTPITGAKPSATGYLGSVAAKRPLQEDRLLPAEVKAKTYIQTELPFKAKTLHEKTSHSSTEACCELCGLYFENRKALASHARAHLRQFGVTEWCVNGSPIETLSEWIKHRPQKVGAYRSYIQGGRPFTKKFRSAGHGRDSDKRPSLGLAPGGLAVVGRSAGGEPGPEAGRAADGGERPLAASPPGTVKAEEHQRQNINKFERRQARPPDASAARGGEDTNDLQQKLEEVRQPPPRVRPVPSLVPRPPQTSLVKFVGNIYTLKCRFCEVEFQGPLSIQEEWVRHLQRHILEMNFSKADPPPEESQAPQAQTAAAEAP
Sequence (Q96SW2 whole entry, the tested form may be a part): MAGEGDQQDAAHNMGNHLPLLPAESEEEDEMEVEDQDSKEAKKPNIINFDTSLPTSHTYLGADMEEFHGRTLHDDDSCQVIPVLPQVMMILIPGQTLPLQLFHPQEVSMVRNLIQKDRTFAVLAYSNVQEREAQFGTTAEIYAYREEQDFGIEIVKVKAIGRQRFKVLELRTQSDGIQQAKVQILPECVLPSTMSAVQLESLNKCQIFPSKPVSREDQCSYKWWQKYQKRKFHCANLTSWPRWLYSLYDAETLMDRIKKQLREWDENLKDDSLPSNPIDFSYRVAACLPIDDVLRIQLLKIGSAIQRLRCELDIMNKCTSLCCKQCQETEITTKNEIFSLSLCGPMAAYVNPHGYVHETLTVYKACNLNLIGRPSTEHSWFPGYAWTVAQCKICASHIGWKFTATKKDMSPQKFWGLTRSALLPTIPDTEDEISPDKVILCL
Sequence (Q16531 whole entry partner, the tested form may be a part): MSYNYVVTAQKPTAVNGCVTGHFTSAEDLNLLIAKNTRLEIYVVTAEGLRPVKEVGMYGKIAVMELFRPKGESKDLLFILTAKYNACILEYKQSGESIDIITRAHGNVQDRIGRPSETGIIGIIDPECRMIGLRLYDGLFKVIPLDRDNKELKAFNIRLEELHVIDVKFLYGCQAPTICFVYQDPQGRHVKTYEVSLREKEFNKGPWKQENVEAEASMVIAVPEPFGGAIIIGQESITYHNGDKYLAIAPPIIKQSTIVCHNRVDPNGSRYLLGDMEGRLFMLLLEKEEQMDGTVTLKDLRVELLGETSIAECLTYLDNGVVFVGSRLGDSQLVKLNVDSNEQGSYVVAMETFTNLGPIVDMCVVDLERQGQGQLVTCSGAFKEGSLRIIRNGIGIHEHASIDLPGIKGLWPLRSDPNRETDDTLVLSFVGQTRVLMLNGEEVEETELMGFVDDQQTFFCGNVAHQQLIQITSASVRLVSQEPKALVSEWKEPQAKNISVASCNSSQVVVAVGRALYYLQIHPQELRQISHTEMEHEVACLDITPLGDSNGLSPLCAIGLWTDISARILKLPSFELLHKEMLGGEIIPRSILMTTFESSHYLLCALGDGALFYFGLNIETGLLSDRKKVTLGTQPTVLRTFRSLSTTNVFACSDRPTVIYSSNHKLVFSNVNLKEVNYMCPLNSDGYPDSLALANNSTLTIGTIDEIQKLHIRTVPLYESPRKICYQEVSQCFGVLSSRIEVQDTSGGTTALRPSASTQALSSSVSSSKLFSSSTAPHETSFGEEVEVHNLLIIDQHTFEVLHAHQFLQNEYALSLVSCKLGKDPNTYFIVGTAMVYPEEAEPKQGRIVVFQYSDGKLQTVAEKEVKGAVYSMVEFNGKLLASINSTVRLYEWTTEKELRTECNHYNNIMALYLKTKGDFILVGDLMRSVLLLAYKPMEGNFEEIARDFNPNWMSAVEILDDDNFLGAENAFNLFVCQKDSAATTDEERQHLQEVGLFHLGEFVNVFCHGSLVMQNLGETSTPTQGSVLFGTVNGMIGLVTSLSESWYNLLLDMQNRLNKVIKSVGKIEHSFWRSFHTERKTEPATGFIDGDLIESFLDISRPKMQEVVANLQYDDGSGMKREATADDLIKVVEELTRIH
Test Method Notes: Quantification of WIZ protein levels in HiBit tag fusion protein assay (WIZ HiBit assay in 293T cells)
Format: cell-based
Experimental Parameters: WIZ HiBit assay in 293T cells; 10-point, 5-fold dose response, highest concentration 25 μM, about 18 hours; read-out: WIZ AC50
Quantity: DC50 (nM)

[[record]]
compound = "O=C1CCN(c2cnn3ccc(CC4CCN(Cc5ccccc5)CC4)cc23)C(=O)N1"
quantity = "DC50"
experimental_result = 232

[[record]]
compound = "CCO[C@H]1CC[C@H](CN2CCC(Cc3ccn4ncc(N5CCC(=O)NC5=O)c4c3)CC2)CC1"
quantity = "DC50"
experimental_result = 44

[[record]]
compound = "O=C1CCN(c2cnn3ccc(CN4CCN(CC5CCOC5)CC4)cc23)C(=O)N1 (centres unmarked)"
quantity = "DC50"
experimental_result = 106

[[record]]
compound = "O=C1CCN(c2cnn3ccc(CC4CCN(CC5CCCCC5)CC4)cc23)C(=O)N1"
quantity = "DC50"
experimental_result = 20

[[record]]
compound = "O=C1CCN(c2cnn3ccc(CN4CCN(CCC5CCCCC5)CC4)cc23)C(=O)N1"
quantity = "DC50"
experimental_result = 20


A = CC(C)(C)OC(=O)N1CCC(Cc2ccn3ncc(N4CCC(=O)NC4=O)c3c2)CC1
B = O=C1CCN(c2cnn3ccc(CC4CCN(S(=O)(=O)C5CC5)CC4)cc23)C(=O)N1
IN: Please let me know which one, A or B , has a lower measured DC50 value. Label of pick, please.
OUT: B

###

Measured On: WIZ protein (HiBit-WIZ fusion protein) (Homo sapiens, UniProt O95785+Q96SW2)
Construct: expressed in transfected cells
Test Method Notes: Quantification of WIZ protein levels in HiBit tag fusion protein assay (WIZ HiBit assay in 293T cells)
Type: cell-based
Experimental Parameters: HEK-293T, 100 − Amax, at 25 uM; 293T cells; read-out: % degradation of WIZ (100 − Amax)
Quantity: Dmax at 25 µM (%)

Some entries whose results are on file:
[[record]]
compound = "C[C@H]1CN(Cc2ccn3ncc(N4CCC(=O)NC4=O)c3c2)CCN1C[C@H]1CC[C@H](C(F)(F)F)CC1"
quantity = "Dmax at 25 µM"
experimental_result = 83

[[record]]
compound = "O=C1CCN(c2cnn3ccc(CC4CCN(C[C@H]5CC[C@H](O)CC5)CC4)cc23)C(=O)N1"
quantity = "Dmax at 25 µM"
experimental_result = 86

[[record]]
compound = "O=C1CCN(c2cnn3ccc(CC4CCN(S(=O)(=O)N5CCCC5)CC4)cc23)C(=O)N1"
quantity = "Dmax at 25 µM"
experimental_result = 68


a = CC(C)(C1CCC(F)(F)CC1)N1CCC(Cc2ccn3ncc(N4CCC(=O)NC4=O)c3c2)CC1
b = CC(C)CN1CC[C@H](Cc2ccn3ncc(N4CCC(=O)NC4=O)c3c2)C[C@@H]1C(F)(F)F (relative stereo)
IN: Pick the one with the larger Dmax at 25 µM: a vs b Label of pick, please.
OUT: a

A = CO[C@H]1CC[C@H](CN2CCN(Cc3ccn4ncc(N5CCC(=O)NC5=O)c4c3)C[C@@H]2C)CC1
B = CC(C)CN1CCN(Cc2ccn3ncc(N4CCC(=O)NC4=O)c3c2)C[C@@H]1C(C)C
IN: Pick the one with the larger Dmax at 25 µM: A vs B Label of pick, please.
OUT: A
(A: 86%, B: 0%)
